# targetDesc: T1, Human ST2-his (human, UniProt Q01638 19-328)
# T1 construct: Expressed in CHO-K1; also called human ST2 fused with a 6-histidine tag at the C-terminus
# T1 sequence: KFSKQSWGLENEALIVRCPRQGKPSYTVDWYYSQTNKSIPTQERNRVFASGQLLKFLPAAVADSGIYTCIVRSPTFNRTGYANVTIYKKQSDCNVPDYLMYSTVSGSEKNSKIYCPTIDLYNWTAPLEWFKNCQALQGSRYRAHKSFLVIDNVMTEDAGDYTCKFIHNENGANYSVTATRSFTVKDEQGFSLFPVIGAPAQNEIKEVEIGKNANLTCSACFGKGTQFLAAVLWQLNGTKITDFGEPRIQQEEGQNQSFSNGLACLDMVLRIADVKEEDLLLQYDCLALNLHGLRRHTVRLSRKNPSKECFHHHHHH
# protocolDescription: ELISA, coated human ST2-his
Record form. Attribute: Relative activity (%) compared with CNTO7160. Fill in for each entry.
Write the number in % without appending the unit.

Need Relative activity (%) compared with CNTO7160, item 5888-153H1+L2 (antibody, V domains shown, murine antibody) VH: QVQLQQSGAELVRPGASVTLSCKASGYTFTDYELHWVKQTPVHGLEWIGTIDPETGDTVYNQKFKAKAILTADKSSSTAYMEFRSLTSEDSAVCYCTRAFYNDYDDGFAYWGQGTLVTVSA VL: QIVMTQTPAIMSASPGEKVTMTCSVSSSVSYMHWYQQKSGTSPKRWIYDTSKLASGVPARFSGSGSGTSYSLTINNMEAEDAATYYCQQWNSSPLTFGAGTKLELK
87.4

# query: Relative activity (%) compared with CNTO7160 of entry 5887-41H+L (antibody, V domains shown, murine antibody) VH: DVQLQQSGPGLVKPSQSLSLTCTVTGYSITSDYAWDWIRQFPGNKLEWMGYIRYSGDTYYNPSLKSRISITRDTSKNQFFLQLNSVTTEDTATYYCATTMMDTMDYWGQGTSVTVSS VL: DIVLTQSPASLTVSLGQRATISCRASKSVSTSGNSYMHWYQQKPGQPPKLLIYLASNLESGVPARFSGSGSGTDFTLNIHPVEEEDAATYYCQHSREFPLTFGAGTKLELK
97.9

Look up Relative activity (%) compared with CNTO7160: 5888-116H1+L1 (antibody, V domains shown, murine antibody) VH: QVQLQQSGAELVRPGASVTLSCKASGYTFTDSEMYWVRLTPVHGLEWIGAIDPETGDTAFNQKFKGKATLTADKSSSTAYMELRSLTSEDSVVYYCTRAFDNDNDDGFAYWGQGTLVTVSA VL: QIVMTQSPAIMSASPGEKVTMTCSASSSVNYMHWYQQKSGTSPKRWIYDTSKLASGVPARFSGSGSGTSYSLTISSMEAEDAATYYCQQWSSNPLTFGAGTKLELK
63.4
